tested on: NCI-N87 PBDr cells (SG3199 acquired resistant); assay: MTS in vitro cytotoxicity, 144 h continuous exposure; type: cell-based, human; conditions: NCI-N87 PBDr, 144 h continuous exposure, mean; read-out: IC50
measurement-label: pIC50
# reply with the number alone; pIC50 is -log10 of concentration in mol/L

Ask | I am curious: what pIC50 value has been reported for COc1cc2c(cc1OCCCCCOc1cc3c(cc1OC)C(=O)N1C=C(C)C[C@H]1C=N3)N=C[C@@H]1CC(C)=CN1C2=O ?
Reply | 10.23
